Experiment: Cytotoxicity MTT assay, L929
Format: cell-based, mouse
Settings: mouse, L929 fibroblast cells; MTT, 48 hours
readout: IC50 at 48 h
Put your answer as a value accompanied by its unit after it.

The molecule listed as O=C(N/N=C/c1[nH]ccc1Cl)c1[nH]c2ccc(Br)cc2c1-c1ccccc1 shows IC50 at 48 h equal to 20.1 µM

// IC50 at 48 h lookup, molecule = O=C(N/N=C/c1cc(Br)c(Br)[nH]1)c1[nH]c2ccc(Br)cc2c1-c1ccccc1 , result: 47.9 µM

Kindly note the recorded IC50 at 48 h for O=C(N/N=C/c1ccc(C(=O)N2CCOCC2)[nH]1)c1[nH]c2ccc(Br)cc2c1-c1ccccc1 , which is 21.8 µM

GET /value?item= CCOC(=O)c1cc[nH]c1/C=N/NC(=O)c1[nH]c2ccc(Br)cc2c1-c1ccccc1 &field=IC50 at 48 h returns 15 µM

Looking up O=C(N/N=C/c1cc(Br)c[nH]1)c1[nH]c2ccc(Br)cc2c1-c1ccccc1 , I see its IC50 at 48 h listed as 22.3 µM

# molecule O=C(N/N=C/c1ccc[nH]1)c1[nH]c2ccc(Br)cc2c1-c1ccccc1 ; its IC50 at 48 h = 26.3 µM

Briefly, IC50 at 48 h measured for CCc1c[nH]c(/C=N/NC(=O)c2[nH]c3ccc(Br)cc3c2-c2ccccc2)c1 : 7.1 µM

For record CCOC(=O)c1cc(/C=N/NC(=O)c2[nH]c3ccc(Br)cc3c2-c2ccccc2)c[nH]1 the listed IC50 at 48 h is 90.1 µM

IC50 at 48 h for CCc1ccc(/C=N/NC(=O)c2[nH]c3ccc(Br)cc3c2-c2ccccc2)[nH]1 is 19.5 µM

Given item O=C(N/N=C/c1cc(C(=O)N2CCOCC2)c[nH]1)c1[nH]c2ccc(Br)cc2c1-c1ccccc1 , the value recorded as its IC50 at 48 h is 43.2 µM

The molecule CCOC(=O)c1c[nH]c(/C=N/NC(=O)c2[nH]c3ccc(Br)cc3c2-c2ccccc2)c1 showed IC50 at 48 h equal to 12.2 µM

For reference, reported IC50 at 48 h for CCc1cc[nH]c1/C=N/NC(=O)c1[nH]c2ccc(Br)cc2c1-c1ccccc1 stands at 12.2 µM

The value of IC50 at 48 h measured for the molecule Cc1cc(C)c(/C=N/NC(=O)c2[nH]c3ccc(Br)cc3c2-c2ccccc2)[nH]1 turned out to be 29.5 µM

What the record says about O=C(N/N=C/c1cc(Cl)c[nH]1)c1[nH]c2ccc(Br)cc2c1-c1ccccc1 : IC50 at 48 h is 53.7 µM

---

Field: CC50. Provide a value for each of the compounds that follow.
System: NCI-H226
Test: NCI60 five-dose screen
Type: cell-based
Settings: Homo sapiens; NCI-H226, NSC lung cancer; read-out: LC50 (the source's name)
Unit µM implied. Number only.

Looking up O=C(N/N=C/c1cc(Br)c[nH]1)c1[nH]c2ccc(Br)cc2c1-c1ccccc1 [Derivative 3e] , I found its CC50 recorded as 29.9

Data point: O=C(N/N=C/c1ccc([N+](=O)[O-])[nH]1)c1[nH]c2ccc(Br)cc2c1-c1ccccc1 [Derivative 3p] ; CC50 = 46.9

Sure, the documented CC50 for Cc1cc(C)c(/C=N/NC(=O)c2[nH]c3ccc(Br)cc3c2-c2ccccc2)[nH]1 [Derivative 3c] is 34.4

The recorded CC50 for CCc1ccc(/C=N/NC(=O)c2[nH]c3ccc(Br)cc3c2-c2ccccc2)[nH]1 [Derivative 3s] is 32.3

Briefly, CC50 measured for CCOC(=O)c1c[nH]c(/C=N/NC(=O)c2[nH]c3ccc(Br)cc3c2-c2ccccc2)c1 [Derivative 3j] : 41.3

Query CCOC(=O)c1cc(/C=N/NC(=O)c2[nH]c3ccc(Br)cc3c2-c2ccccc2)c[nH]1 [Derivative 3v] yields CC50 of 46.2

compound O=C(N/N=C/c1ccc[nH]1)c1[nH]c2ccc(Br)cc2c1-c1ccccc1 [Derivative 3a] , CC50 observed: 23.3

For record O=C(N/N=C/c1cc(Br)c(Br)[nH]1)c1[nH]c2ccc(Br)cc2c1-c1ccccc1 [Derivative 3f] the listed CC50 is 32.5

The measured CC50 associated with CCOC(=O)c1ccc(/C=N/NC(=O)c2[nH]c3ccc(Br)cc3c2-c2ccccc2)[nH]1 [Derivative 3i] reads 45.4

---

Tested on: NCI/ADR-RES
Assay: NCI60 five-dose screen
Type: cell-based, human
Details: Homo sapiens, ovarian cancer, read-out: LC50 (the source's name)
readout: CC50

// O=C(N/N=C/c1cc[nH]c1)c1[nH]c2ccc(Br)cc2c1-c1ccccc1 [Derivative 3b] : CC50 value = 27.1 µM

Please fill in: CC50 reported for Cn1cccc1/C=N/NC(=O)c1[nH]c2ccc(Br)cc2c1-c1ccccc1 [Derivative 3d] = 40.9 µM

Just so you know, measured CC50 for Cc1cc(C)c(/C=N/NC(=O)c2[nH]c3ccc(Br)cc3c2-c2ccccc2)[nH]1 [Derivative 3c] came out at 19.3 µM

The compound CCOC(=O)c1c[nH]c(/C=N/NC(=O)c2[nH]c3ccc(Br)cc3c2-c2ccccc2)c1 [Derivative 3j] showed CC50 equal to 10.4 µM

What the record says about Cc1[nH]c(/C=N/NC(=O)c2[nH]c3ccc(Br)cc3c2-c2ccccc2)c(C)c1[N+](=O)[O-] [Derivative 3r] : CC50 is 9.15 µM

Quick note, CC50 for CCc1cc[nH]c1/C=N/NC(=O)c1[nH]c2ccc(Br)cc2c1-c1ccccc1 [Derivative 3u] landed at 34.6 µM

Record O=C(N/N=C/c1cc(Br)c[nH]1)c1[nH]c2ccc(Br)cc2c1-c1ccccc1 [Derivative 3e] , field CC50: 0.97 µM

Given item O=C(N/N=C/c1ccc(C(=O)N2CCOCC2)[nH]1)c1[nH]c2ccc(Br)cc2c1-c1ccccc1 [Derivative 3n] , the value recorded as its CC50 is 84.1 µM

---

Tested on: SNB-19
Please use criterion met for GI50 under 4 µM and criterion not met for everything else, ties included.

Input line: Hello, I'm reviewing records and need to know if GI50 of O=C(N/N=C/c1ccc[nH]1)c1[nH]c2ccc(Br)cc2c1-c1ccccc1 is below 4 µM. Could you check?
Output line: criterion met

Input line: GI50 strictly < 4 µM for this compound? CCc1cc[nH]c1/C=N/NC(=O)c1[nH]c2ccc(Br)cc2c1-c1ccccc1
Output line: criterion not met

Input line: A record lists O=C(N/N=C/c1cc([N+](=O)[O-])c[nH]1)c1[nH]c2ccc(Br)cc2c1-c1ccccc1 . Is its GI50 below 4 µM?
Output line: criterion not met

Input line: Please state whether GI50 is below 4 µM for Cn1cccc1/C=N/NC(=O)c1[nH]c2ccc(Br)cc2c1-c1ccccc1
Output line: criterion met

Input line: Strictly below 4 µM in GI50? CCOC(=O)c1c[nH]c(/C=N/NC(=O)c2[nH]c3ccc(Br)cc3c2-c2ccccc2)c1
Output line: criterion not met

Input line: Dear reviewer, please state whether O=C(N/N=C/c1[nH]ccc1Cl)c1[nH]c2ccc(Br)cc2c1-c1ccccc1 has GI50 strictly beneath 4 µM.
Output line: criterion met

Input line: Input Cc1cc(C)c(/C=N/NC(=O)c2[nH]c3ccc(Br)cc3c2-c2ccccc2)[nH]1 ; condition: GI50 strictly below 4 µM. Does it hold?
Output line: criterion met

---

Please provide measured GI50 for the entries that follow.
Quick reminder: number only, in µM, skip the unit.

Reported SNB-19 GI50 for item O=C(N/N=C/c1ccc(C(=O)N2CCOCC2)[nH]1)c1[nH]c2ccc(Br)cc2c1-c1ccccc1 was 5.66

GI50 for SNB-19 with input O=C(N/N=C/c1cc(Cl)c[nH]1)c1[nH]c2ccc(Br)cc2c1-c1ccccc1 equals 0.638

The reported SNB-19 GI50 of O=C(N/N=C/c1cc(Br)c(Br)[nH]1)c1[nH]c2ccc(Br)cc2c1-c1ccccc1 is 3.47

Bench note, SNB-19: Cc1[nH]c(/C=N/NC(=O)c2[nH]c3ccc(Br)cc3c2-c2ccccc2)c(C)c1[N+](=O)[O-] , GI50 reads 3.45

Kindly note: SNB-19, CCc1c[nH]c(/C=N/NC(=O)c2[nH]c3ccc(Br)cc3c2-c2ccccc2)c1 , GI50 value reported: 0.396

Tested system SNB-19; GI50 recorded for O=C(N/N=C/c1ccc([N+](=O)[O-])[nH]1)c1[nH]c2ccc(Br)cc2c1-c1ccccc1 was 3.34

---

Test system: MDA-MB-468
Experiment: NCI60 five-dose screen
Assay type: cell-based
Conditions: Homo sapiens; MDA-MB-468, breast cancer
Assignment: determine reported GI50 for the given compounds.
Reply with the number and its unit after it.

Per the record, O=C(N/N=C/c1cc[nH]c1)c1[nH]c2ccc(Br)cc2c1-c1ccccc1 has GI50 of 593 nM

So, O=C(N/N=C/c1ccc([N+](=O)[O-])[nH]1)c1[nH]c2ccc(Br)cc2c1-c1ccccc1 ? Its GI50 was 873 nM

Measured GI50, Cn1cccc1/C=N/NC(=O)c1[nH]c2ccc(Br)cc2c1-c1ccccc1 : 155 nM

Noted for CCc1cc[nH]c1/C=N/NC(=O)c1[nH]c2ccc(Br)cc2c1-c1ccccc1 : its GI50 reads 2720 nM

The recorded GI50 for Cc1[nH]c(/C=N/NC(=O)c2[nH]c3ccc(Br)cc3c2-c2ccccc2)c(C)c1[N+](=O)[O-] is 1940 nM
